- measured-target: UniProtKB P10275
- Sequence (P10275 1-920): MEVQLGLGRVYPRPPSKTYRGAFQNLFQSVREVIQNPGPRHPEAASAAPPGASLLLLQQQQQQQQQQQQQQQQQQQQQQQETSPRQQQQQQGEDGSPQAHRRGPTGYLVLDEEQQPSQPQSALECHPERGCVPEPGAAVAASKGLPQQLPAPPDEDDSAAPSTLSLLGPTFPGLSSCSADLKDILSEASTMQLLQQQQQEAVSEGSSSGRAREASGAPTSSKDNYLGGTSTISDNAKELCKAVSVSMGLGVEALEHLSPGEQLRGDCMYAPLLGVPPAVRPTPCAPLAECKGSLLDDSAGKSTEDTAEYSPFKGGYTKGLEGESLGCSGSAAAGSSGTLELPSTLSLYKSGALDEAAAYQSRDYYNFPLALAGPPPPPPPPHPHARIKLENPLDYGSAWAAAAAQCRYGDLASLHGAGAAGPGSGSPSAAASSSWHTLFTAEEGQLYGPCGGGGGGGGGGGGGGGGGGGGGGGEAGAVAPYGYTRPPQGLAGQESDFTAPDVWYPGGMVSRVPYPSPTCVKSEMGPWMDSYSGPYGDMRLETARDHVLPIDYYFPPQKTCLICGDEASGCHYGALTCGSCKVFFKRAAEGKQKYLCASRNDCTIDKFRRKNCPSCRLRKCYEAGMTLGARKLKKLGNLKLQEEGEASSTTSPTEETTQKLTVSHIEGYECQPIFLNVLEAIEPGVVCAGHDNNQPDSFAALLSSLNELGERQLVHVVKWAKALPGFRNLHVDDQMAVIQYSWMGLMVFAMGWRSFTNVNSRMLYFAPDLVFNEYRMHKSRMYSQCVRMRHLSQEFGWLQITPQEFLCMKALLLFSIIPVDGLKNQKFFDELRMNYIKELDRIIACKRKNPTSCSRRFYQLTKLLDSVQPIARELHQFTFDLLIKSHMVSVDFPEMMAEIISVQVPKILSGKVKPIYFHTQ
- procedure-details: AR whole cell competitive binding assay (COS-1 cells, 3H-DHT)
- assay-conditions: 1 nM 3H-DHT, Cheng-Prusoff
readout-label: pKi
Scale for pKi: -log10 of concentration given in mol/L; no unit attached.

Record excerpt, results attached:
compound: O=c1cc(C(F)(F)F)c2cc(N3CCCCC3CCOCc3ccccc3)ccc2[nH]1 (racemic)
pKi: 8.24
//
compound: O=c1cc(C(F)(F)F)c2cc(N3CCc4ccccc43)ccc2[nH]1
pKi: 6.01
//
compound: CC(C)(C)Nc1ccc2[nH]c(=O)cc(C(F)(F)F)c2c1
pKi: 7.21
//
compound: O=c1cc(C(F)(F)F)c2cc(N(CC(F)(F)Cl)CC(F)(F)Cl)ccc2[nH]1
pKi: 9.05
//
compound: CC1CCCCN1c1ccc2[nH]c(=O)cc(C(F)(F)F)c2c1 (racemic)
pKi: 8.34
//
compound: O=c1cc(C(F)(F)F)c2cc(N3CCCCC3CCOCc3ccc(C(F)(F)F)cc3)ccc2[nH]1 (racemic)
pKi: 8.08
//
compound: CC1CN(c2ccc3[nH]c(=O)cc(C(F)(F)F)c3c2)C(C(F)(F)F)O1 (racemic)
pKi: 7.51
//
compound: O=c1cc(C(F)(F)F)c2cc(N3CCCc4ccccc43)ccc2[nH]1
pKi: 7.21
//
compound: C[C@@H]1C=C[C@H](C)N1c1ccc2[nH]c(=O)cc(C(F)(F)F)c2c1
pKi: 7.72
//
compound: CCC(CC)c1ccc2[nH]c(=O)cc(C(F)(F)F)c2c1
pKi: 7.09

Give pKi for the following compound: `O=c1cc(C(F)(F)F)c2cc(N3CCCC[C@@H]3CCl)ccc2[nH]1`
8.82

Find the measured pKi of `CCCN(CC)c1ccc2[nH]c(=O)cc(C(F)(F)F)c2c1` and report it.
7.77

Return the recorded pKi value; entry: C=CC1CCCCN1c1ccc2[nH]c(=O)cc(C(F)(F)F)c2c1 (racemic)
7.59
